Source of measurements: ChEMBL document CHEMBL4196172

# method: Apparent clearance in rat liver microsomes at 0.5 uM
# Format: ADME, microsome
# assay context: read-out: CLH(app)
Reported CLint scaled at 0.5 µM by item:
// note: answer is a bare numeric in mL/min/kg

## Task What value of CLint scaled at 0.5 µM has been reported for the following compound? "CCCc1nn(C)c2c(=O)[nH]c(-c3cc(S(=O)(=O)N4CCN(C)CC4)ccc3OCC)nc12"
## Result 463

## Task What value of CLint scaled at 0.5 µM has been reported for the following compound? "O=c1c2c(F)cccc2oc2c(Cc3ccc4c(c3)OCO4)[nH]c(-c3nccs3)c12"
## Result 262

## Task What value of CLint scaled at 0.5 µM has been reported for the following compound? "CN1CCN(CCNc2cc(O)c3c(=O)c4c(-c5nccs5)[nH]c(Cc5ccc6c(c5)OCO6)c4oc3c2)CC1"
## Result 472

---

Reported half-life at 0.5 µM by item:
# method: Half life in rat liver microsomes at 0.5 uM
# Assay type: ADME, microsome
// note: answer is a bare numeric in min

Example results:
CCCc1nn(C)c2c(=O)[nH]c(-c3cc(S(=O)(=O)N4CCN(C)CC4)ccc3OCC)nc12
5.37
O=c1c2c(F)cccc2oc2c(Cc3ccc4c(c3)OCO4)[nH]c(-c3nccs3)c12
9.52

Next:
## Task What value of half-life at 0.5 µM has been reported for the following compound? "CN1CCN(CCNc2cc(O)c3c(=O)c4c(-c5nccs5)[nH]c(Cc5ccc6c(c5)OCO6)c4oc3c2)CC1"
## Result 5.26

---

# study system: Dual 3',5'-cyclic-AMP and -GMP phosphodiesterase 11A (Homo sapiens, UniProt Q9HCR9)
# Sequence (Q9HCR9 whole entry): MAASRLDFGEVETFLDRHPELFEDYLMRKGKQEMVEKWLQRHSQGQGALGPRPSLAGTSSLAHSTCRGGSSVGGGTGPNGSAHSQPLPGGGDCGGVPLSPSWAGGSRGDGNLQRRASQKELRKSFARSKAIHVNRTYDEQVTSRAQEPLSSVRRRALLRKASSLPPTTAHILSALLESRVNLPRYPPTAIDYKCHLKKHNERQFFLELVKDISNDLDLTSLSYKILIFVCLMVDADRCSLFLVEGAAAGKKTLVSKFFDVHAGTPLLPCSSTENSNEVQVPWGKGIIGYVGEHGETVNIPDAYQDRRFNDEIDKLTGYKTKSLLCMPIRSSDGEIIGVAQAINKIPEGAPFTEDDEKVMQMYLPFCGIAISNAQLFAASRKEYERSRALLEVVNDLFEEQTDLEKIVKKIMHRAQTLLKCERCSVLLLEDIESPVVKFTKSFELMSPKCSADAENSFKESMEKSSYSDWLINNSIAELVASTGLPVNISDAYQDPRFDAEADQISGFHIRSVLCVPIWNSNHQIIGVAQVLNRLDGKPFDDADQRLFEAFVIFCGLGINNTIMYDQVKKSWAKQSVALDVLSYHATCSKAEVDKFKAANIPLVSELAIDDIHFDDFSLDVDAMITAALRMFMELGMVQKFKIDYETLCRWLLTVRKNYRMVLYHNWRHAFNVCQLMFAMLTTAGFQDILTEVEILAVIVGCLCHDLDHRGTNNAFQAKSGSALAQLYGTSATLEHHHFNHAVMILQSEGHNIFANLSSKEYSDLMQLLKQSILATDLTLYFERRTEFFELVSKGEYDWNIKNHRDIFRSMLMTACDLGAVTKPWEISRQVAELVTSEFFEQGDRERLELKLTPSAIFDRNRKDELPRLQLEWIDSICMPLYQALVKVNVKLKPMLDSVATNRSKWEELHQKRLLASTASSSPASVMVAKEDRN
value kind: IC50 (nM)
// note: answer is a bare numeric in nM

## Task Notebook entry, Dual 3',5'-cyclic-AMP and -GMP phosphodiesterase 11A (Homo sapiens, UniProt Q9HCR9) assay: IC50 of "COCCNc1cc(O)c2c(=O)c3c(-c4nccs4)[nH]c(Cc4ccc5c(c4)OCO5)c3oc2c1" = ?
## Result 39

---

# method: Hepatic extraction ratio in rat liver microsomes at 0.5 uM
# Assay type: ADME, microsome
# assay context: read-out: ERH
Reported hepatic extraction ratio at 0.5 µM by item:

O=c1c2c(F)cccc2oc2c(Cc3ccc4c(c3)OCO4)[nH]c(-c3nccs3)c12
0.83

Next:
## Task What value of hepatic extraction ratio at 0.5 µM has been reported for the following compound? "CN1CCN(CCNc2cc(O)c3c(=O)c4c(-c5nccs5)[nH]c(Cc5ccc6c(c5)OCO6)c4oc3c2)CC1"
## Result 0.9

---

Reported K by item:
# method: Metabolic stability in rat liver microsomes assessed as stability rate constant at 0.5 uM
# Type: ADME, microsome

Example results:
CCCc1nn(C)c2c(=O)[nH]c(-c3cc(S(=O)(=O)N4CCN(C)CC4)ccc3OCC)nc12
0.1291
O=c1c2c(F)cccc2oc2c(Cc3ccc4c(c3)OCO4)[nH]c(-c3nccs3)c12
0.0728
COCCNc1cc(O)c2c(=O)c3c(-c4nccs4)[nH]c(Cc4ccc5c(c4)OCO5)c3oc2c1
0.0378 to 0.046

Next:
## Task What value of K has been reported for the following compound? "CN1CCN(CCNc2cc(O)c3c(=O)c4c(-c5nccs5)[nH]c(Cc5ccc6c(c5)OCO6)c4oc3c2)CC1"
## Result 0.1317
